Molecular target: human M4 muscarinic acetylcholine receptor (Homo sapiens)
Sequence (P08173 whole entry): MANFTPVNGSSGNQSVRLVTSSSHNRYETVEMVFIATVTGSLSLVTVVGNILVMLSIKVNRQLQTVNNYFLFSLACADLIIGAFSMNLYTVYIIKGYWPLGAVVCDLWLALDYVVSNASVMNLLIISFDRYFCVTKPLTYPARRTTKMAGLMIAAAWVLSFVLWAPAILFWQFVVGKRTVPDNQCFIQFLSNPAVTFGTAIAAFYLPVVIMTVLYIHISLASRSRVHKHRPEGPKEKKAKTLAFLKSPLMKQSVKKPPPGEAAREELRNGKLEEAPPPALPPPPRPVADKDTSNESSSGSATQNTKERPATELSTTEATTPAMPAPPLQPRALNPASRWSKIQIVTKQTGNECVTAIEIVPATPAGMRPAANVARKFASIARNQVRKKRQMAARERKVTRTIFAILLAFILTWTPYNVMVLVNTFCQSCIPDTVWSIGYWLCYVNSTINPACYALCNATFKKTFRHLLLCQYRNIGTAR
Assay: human FLIPR-based M4 PAM assay, CHO-K1 cells stably transfected with human M4 receptor and chimeric G-protein Gαqi5
Details: inflection point (IP) of dose response curve; acetylcholine added at 20% of maximum response; CHO-K1 human M4/Gαqi5, FLIPR Tetra
Procedure: In a typical experiment the M4 muscarinic acetylcholine receptor modulating activity of the compounds of the present invention was determined in accordance with the following experimental method. […] Following dye loading the cell plates are placed in a FLIPR Tetra instrument and while monitoring dye fluorescence (excitation […]), 10 uL of test substance at increasing concentrations is added, and fluorescence values are recorded for 4 min. […]
Measured property: pEC50
To interpret pEC50, take it as minus log10 of a concentration measured in moles per litre.

Identify measured pEC50 associated with Cc1c(Cl)nc(CO)nc1N1CCC(Oc2ccc3c(c2)NCCO3)CC1
6.95

Identify measured pEC50 associated with Cc1c(Cl)nc(CO)nc1N1CCC(Oc2ccc3c(c2)OCCO3)CC1
7.54

Identify measured pEC50 associated with Cc1c(Cl)nc(CO)nc1N1CCC(Oc2ccc3c(c2)OCCN3)CC1
7.43

Identify measured pEC50 associated with COC(=O)c1cc(C)c(N2CCC(Oc3ccc(OC)nc3)CC2)nc1C#N
6.31

Identify measured pEC50 associated with COc1ccc(OC2CCN(c3nc(C)c(C(N)=O)cc3C)CC2)cn1
5.53

Identify measured pEC50 associated with Cc1cc(C(=O)NCc2ccncc2)nnc1N1CCC(Oc2cnn(C)c2)CC1
7.13

Identify measured pEC50 associated with COc1ccc(OC2CCN(c3nnc(C(=O)N[C@H]4CCc5cc(F)ccc5C4)cc3C)CC2)cn1 [Example 184A]
6.37

Identify measured pEC50 associated with COC(=O)c1cc(C(=O)OC)c(N2CCC(Oc3ccc(OC)nc3)CC2)nc1C#N
6.03

Identify measured pEC50 associated with COc1ccc(OC2CCN(c3ncnc(-c4ccc(F)cc4)c3C)CC2)cn1
5.57

Identify measured pEC50 associated with Cc1c(Cl)ncnc1N1CCC(Oc2ccc3nn(C)cc3c2)CC1
6.97

Identify measured pEC50 associated with COC(=O)c1cc(C)c(N2CC[C@H](Oc3ccc(OC)nc3)[C@H](F)C2)nn1
6.54

Identify measured pEC50 associated with COc1ccc(OC2CCN(c3ncnc(C)c3C)CC2)cn1
6.84

Identify measured pEC50 associated with COc1ccc(OC2CCN(c3nnc(C(=O)NCc4ccc5c(c4)OCO5)cc3C)CC2)cn1
6.40

Identify measured pEC50 associated with Cc1cc(C(=O)NC2C3CC2C3)nnc1N1CCC(Oc2ccc3[nH]ncc3c2)CC1 (stereo not drawn)
7.00

Identify measured pEC50 associated with Cc1c(-c2ccc3c(=O)nc[nH]c3c2)ncnc1N1CCC(Oc2cccc(C#N)c2)CC1
5.76

Identify measured pEC50 associated with Cc1cc(C(=O)NC2CCc3ncccc3C2)nnc1N1CCC(OCC2CC2)CC1 (stereo not drawn)
6.85

Identify measured pEC50 associated with COC(=O)c1cc(C)c(N2CCC(Oc3cccc(C#N)c3)CC2)nn1
7.19

Identify measured pEC50 associated with COc1ccc(OC2CCN(c3ncnc(NCCC(F)(F)F)c3C)CC2)cn1
5.49
